System: Bacillus subtilis
Assay: Antibacterial activity against Bacillus subtilis at 100 ug/ml after 16 to 20 hrs by broth microdilution method
Type: functional, organism-based
The source made the active and inactive calls. The rule behind the calls is not given here.
Property label: Activity

CCCCCCCCCCCCC#Cc1c[nH]c(=O)[nH]c1=O = inactive
CCCC#Cc1c[nH]c(=O)[nH]c1=O = inactive
CCCCCc1cc2c[nH]c(=O)nc2o1 = inactive
O=c1[nH]c(=O)n([C@H]2C[C@H](O)[C@@H](CO)O2)cc1C#Cc1ccccn1 = inactive

====

Entries and their inhibition at 10 µg/mL
Tested on: Mycobacterium tuberculosis
Test: Antitubercular activity against Mycobacterium tuberculosis H37Ra at 10 ug/ml after 6 days by microplate alamar blue assay
Format: functional
Conditions: 144 h
Provide the reading as a plain figure in %.

Consider the reported inhibition at 10 µg/mL for these compounds:
N[C@@H]1CONC1=O = 67
O=c1[nH]cc(C#Cc2ccccn2)c(=O)[nH]1 = 60
CCCCCc1ccc(C#Cc2c[nH]c(=O)[nH]c2=O)cc1 = 50
O=c1[nH]cc(C#Cc2ccccc2)c(=O)[nH]1 = 40
C(C#Cc1ccccn1)#Cc1ccccn1 = 100

q: # inhibition at 10 µg/mL lookup, item `CCCc1cc2c[nH]c(=O)nc2o1`
a: 0

====

Assay: Cytotoxicity against human HuH7 cells assessed as cell viability after 2 days by XTT assay
Assay type: cell-based, Huh-7
Conditions: HuH7 cells
Property label: CC50 at 48 h

O=c1[nH]cc(C#Cc2ccccn2)c(=O)[nH]1 = > 100 µg/mL
CCCc1ccc(C#Cc2c[nH]c(=O)[nH]c2=O)cc1 = > 100 µg/mL

q: # CC50 at 48 h lookup, item `O=c1[nH]cc(C#Cc2ccccc2)c(=O)[nH]1`
a: > 100 µg/mL

q: # CC50 at 48 h lookup, item `CCCCCc1ccc(C#Cc2c[nH]c(=O)[nH]c2=O)cc1`
a: > 100 µg/mL

====

System: Mycobacterium tuberculosis
Experiment: Antitubercular activity against Mycobacterium tuberculosis H37Ra at 10 ug/ml after 6 days by microplate alamar blue assay
Assay type: functional
Conditions: 144 h
Entries and their inhibition at 10 µg/mL
Report the figure along with its unit, number first.

Consider the reported inhibition at 10 µg/mL for these molecules:
Nc1nc(=O)n([C@H]2C[C@H](O)[C@@H](CO)O2)cc1C#Cc1ccccn1 = 70%
CCCc1ccc(C#Cc2c[nH]c(=O)[nH]c2=O)cc1 = 55%

Lab note: next molecule to report on.
q: # inhibition at 10 µg/mL lookup, item `O=c1[nH]c(=O)n([C@H]2C[C@H](O)[C@@H](CO)O2)cc1C#Cc1ccccn1`
a: 68%

Sourced from ChEMBL document CHEMBL1212938
